Tested on: A549
assayProtocol: Alamar blue cytotoxicity assay
Format: cell-based, human
assayContext: Homo sapiens, 72 h, read-out: IC50 and 95%CI
measure: IC50 (nM)
Express your answer in nM, writing the number without its unit.

// query Quick check: IC50 of COc1cccc2c1C(=O)c1c(O)c3c(c(O)c1C2=O)C[C@@](O)(C(=O)CO)C[C@@H]3O[C@H]1C[C@H](N)[C@H](O)[C@H](C)O1 [DOX, Doxorubicin, reference compound] ?
// result 2350

###

Test system: DU 145
assayProtocol: Alamar blue cytotoxicity assay
Assay type: cell-based, human
assayContext: Homo sapiens, 72 h, read-out: IC50 and 95%CI
measure: IC50
Dear colleague, please send the value followed by its unit.

// query Quick check: IC50 of COc1cccc2c1C(=O)c1c(O)c3c(c(O)c1C2=O)C[C@@](O)(C(=O)CO)C[C@@H]3O[C@H]1C[C@H](N)[C@H](O)[C@H](C)O1 [DOX, Doxorubicin, reference compound] ?
// result 220 nM
